# reported Kd; entries follow
Target: FXI
Test: Kd (SPR)
Use nM as the unit, but write only the number.

>>> readout_value("unnamed (protein) chain 1: EVQLLESGGGLVQPGGSLRLSCAASGFTFSQYGMDWVRQAPGKGLEWVSGIGPSGGSTVYADSVKGRFTISRDNSKNTLYLQMNSLRAEDTAVYYCTRGGPAYYYAFDYWGQGTTVTVSS chain 2: DIQMTQSPSSLSASVGDRVTITCQASQDISNYLNWYQQKPGKAPKLLIYDASNLETGVPSRFSGSGSGTDFTFTISSLQPEDIATYYCQQADSFPVTFGGGTKVEIK")
306
>>> readout_value("unnamed (protein) chain 1: EVQLLESGGGLVQPGGSLRLSCAASGFTFSSYAMDWVRQAPGKGLEWVSGISYDGGSTVYADSVKGRFTISRDNSKNTLYLQMNSLRAEDTAVYYCARGGPAYYYAFDVWGQGTTVTVSS chain 2: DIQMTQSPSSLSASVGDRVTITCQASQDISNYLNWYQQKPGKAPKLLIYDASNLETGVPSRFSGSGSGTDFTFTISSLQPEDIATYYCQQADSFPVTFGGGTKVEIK")
702
>>> readout_value("unnamed (protein) chain 1: EVQLLESGGGLVQPGGSLRLSCAASGFTFSQYGMDWVRQAPGKGLEWVSGIGPSGGSTVYADSVKGRFTISRDNSKNTLYLQMNSLRAEDTAVYYCARDGPAYYYAFDYWGQGTTVTVSS chain 2: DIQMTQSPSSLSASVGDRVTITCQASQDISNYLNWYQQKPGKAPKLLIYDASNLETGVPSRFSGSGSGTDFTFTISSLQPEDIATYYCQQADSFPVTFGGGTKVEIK")
106
>>> readout_value("unnamed (protein) chain 1: EVQLLESGGGLVQPGGSLRLSCAASGFTFSQYGMDWVRQAPGKGLEWVSGIGPSGGSTVYADSVKGRFTISRDNSKNTLYLQMNSLRAEDTAVYYCTRDGPAYYYAFDYWGQGTTVTVSS chain 2: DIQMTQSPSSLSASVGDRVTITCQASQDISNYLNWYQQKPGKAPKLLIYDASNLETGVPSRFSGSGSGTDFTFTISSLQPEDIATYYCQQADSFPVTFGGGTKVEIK")
147

Lookup: Requested read-out: Kd. Entry: unnamed (protein) chain 1: EVQLLESGGGLVQPGGSLRLSCAASGFTFSQYGMDWVRQAPGKGLEWVSGIGPSGGSTVYADSVKGRFTISRDNSKNTLYLQMNSLRAEDTAVYYCTRDGPDYYYAFDYWGQGTTVTVSS chain 2: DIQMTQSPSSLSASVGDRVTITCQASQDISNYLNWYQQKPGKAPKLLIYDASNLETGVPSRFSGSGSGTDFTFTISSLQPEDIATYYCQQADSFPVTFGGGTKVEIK
Found: 573

Lookup: So what does the record say about Kd for unnamed (protein) chain 1: EVQLLESGGGLVQPGGSLRLSCAASGFTFSSYAMDWVRQAPGKGLEWVSGISSDGGSTVYADSVKGRFTISRDNSKNTLYLQMNSLRAEDTAVYYCTRDGPYYYYAFDVWGQGTTVTVSS chain 2: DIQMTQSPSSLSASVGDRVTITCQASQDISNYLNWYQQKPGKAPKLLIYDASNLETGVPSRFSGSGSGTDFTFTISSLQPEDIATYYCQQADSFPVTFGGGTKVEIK ?
Found: 693

Lookup: Using the record for unnamed (protein) chain 1: EVQLLESGGGLVQPGGSLRLSCAASGFTFSSYGMDWVRQAPGKGLEWVSGISSDGGSTVYADSVKGRFTISRDNSKNTLYLQMNSLRAEDTAVYYCTRDGPAYYYAFDVWGQGTTVTVSS chain 2: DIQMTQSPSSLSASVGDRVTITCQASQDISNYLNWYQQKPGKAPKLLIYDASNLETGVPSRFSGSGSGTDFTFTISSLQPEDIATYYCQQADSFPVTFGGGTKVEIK , report its Kd.
Found: 58

Lookup: # get_value(readout='Kd', item= unnamed (protein) chain 1: EVQLLESGGGLVQPGGSLRLSCAASGFTFSQYGMDWVRQAPGKGLEWVSGIGPSGGSTVYADSVKGRFTISRDNSKNTLYLQMNSLRAEDTAVYYCARDGPAYYYGFDVWGQGTTVTVSS chain 2: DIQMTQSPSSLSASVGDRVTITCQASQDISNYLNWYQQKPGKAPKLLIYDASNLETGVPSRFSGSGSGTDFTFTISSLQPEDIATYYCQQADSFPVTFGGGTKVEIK )
Found: 175

Lookup: Given the entry unnamed (protein) chain 1: EVQLLESGGGLVQPGGSLRLSCAASGFTFSSYAMDWVRQAPGKGLEWVSGISSDGGSTVYADSVKGRFTISRDNSKNTLYLQMNSLRAEDTAVYYCTRDGPWYYYAFDVWGQGTTVTVSS chain 2: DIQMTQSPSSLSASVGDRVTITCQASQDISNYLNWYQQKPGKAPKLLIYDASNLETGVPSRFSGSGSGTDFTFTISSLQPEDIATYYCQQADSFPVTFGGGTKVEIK , report its measured Kd.
Found: 692

Lookup: So what's the measured Kd for this one? unnamed (protein) chain 1: EVQLLESGGGLVQPGGSLRLSCAASGFTFSQYGMDWVRQAPGKGLEWVSGIGPSGGSTVYADSVKGRFTISRDNSKNTLYLQMNSLRAEDTAVYYCARDGPSWYYAFDVWGQGTTVTVSS chain 2: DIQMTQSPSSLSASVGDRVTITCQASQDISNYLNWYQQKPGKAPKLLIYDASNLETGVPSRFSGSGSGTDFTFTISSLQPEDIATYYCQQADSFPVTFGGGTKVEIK
Found: 59.9
